- target: T1, Bcl-w, biotinylated (C-terminal avi-6His) (human, UniProt Q92843 1-193, biotin (enzymatic, BirA))
- T1 chain: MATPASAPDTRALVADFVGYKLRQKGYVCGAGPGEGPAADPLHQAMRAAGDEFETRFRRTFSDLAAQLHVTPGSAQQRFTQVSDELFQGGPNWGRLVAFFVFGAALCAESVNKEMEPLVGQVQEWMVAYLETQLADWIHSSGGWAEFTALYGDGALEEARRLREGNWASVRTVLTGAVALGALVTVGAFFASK
- protocol: BLI
Measured pKd values are reported for all entries that follow.
Scale for pKd: -log10 of concentration given in mol/L; no unit attached.

- binder: "W-CDP03 (Bcl-w-targeting computationally designed protein) (designed binder) ADPKKVFDEAKDRAENNVRRLKQKLEELYKEARKKDLTQEEREKLKEKYKTAMAAAALAAIGDAFNALLKARKLHKNGQVNEQQLEELARRLQELAKEAFQKAKDYANEFEYKLEY"
  pKd: 8.10
- binder: "B-CDP01 (Bcl-B-targeting computationally designed protein) (designed binder) ADPKKVLDKAKDQAENRVRELKQELERLYKEARKLDLTQEMRRKLEWRYIAAMLKAIGDILNAIAQAENEADKLKKAGLVNSQQLDELRRRLEELAKEAARKAHDYGREFQLKLEY"
  pKd: 5.70

-- ask Find the measured pKd of F-ECM04 (enriched combinatorial mutant of F-CDP01) (designed binder) ADPKKVLDKAKDQAENRVRELKQKLEELYKEARKLDLTQEMRKKLEVAALGAVLAAHGDILNAIMQAKEEADKLKKAGLVNSQQLDELKRRLEELKEEALRKASDYGKEFHLKRRY and report it.
-- reply 5.42

-- ask Could you please provide reported pKd for 2-CDP06 (Bcl-2-targeting Computationally Designed Protein) (designed binder) MADPKKVLDKAKDEAENRVRELKQKLEELYKEARKLDLTQEMRQELVDKARAASLQAIGDIFYAILRALAEAEKLKKAGLVNSQQLDELKRRLEELAEEARRKAEKLGDEFRLKLEYG ? Thanks!
-- reply 5.77
